- System: P-gp (human MDR1)
- method: in vitro
- test settings: dog, MDCK-MDR1, pH 7.4, with an inhibitor present (name and concentration not stated)
measurement label: Papp B→A at 60 min, 0.5 μM
Please state the value followed by its unit.

Prompt: Look up Papp B→A at 60 min, 0.5 μM: `Clc1ccc2c(c1)N=C(N1CCNCC1)c1ccccc1N2`
Completion: 2.9 ×10⁻⁶ cm/s

* * *

- Test system: P-gp (human MDR1)
- method: in vitro
- test settings: dog, MDCK-MDR1, pH 7.4
measurement label: Papp A→B at 60 min, 0.5 μM (×10⁻⁶ cm/s)
Give the value, in units of ×10⁻⁶ cm/s, as a plain number.

Prompt: Look up Papp A→B at 60 min, 0.5 μM: CN(C)CCC=C1c2ccccc2COc2ccccc21 [Doxepin, doxepin]
Completion: 2

All values here come from paper PMC10809502.
